System: N. gonorrhoeae ATCC 49226
test-protocol: Liquid broth MIC in Fastidious broth
Assay type: cell-based
assay-context: Neisseria gonorrhoeae, ATCC49226; N. gonorrhoeae strain ATCC 49226; Fastidious broth; read-out: Minimum Inhibitory Concentration, N. gonorrhoeae ATCC 49226
measured-parameter: MIC

* CCN1CCN(C(=O)NC(C(=O)N[C@H]2Cc3cccc(C(=O)O)c3OB2O)c2cc(Cl)c(C(=O)O)cc2F)C(=O)C1=O (stereo partly drawn) | 4 to 8 µg/mL
* CS(=O)(=O)N1CCN(C(=O)N[C@@H](C(=O)N[C@H]2Cc3cccc(C(=O)O)c3OB2O)c2c(F)cc(O)cc2F)C1=O (single isomer, unassigned) | 4 to 8 µg/mL
* Nc1nc(/C(=N/OC[C@H](NC(=O)c2ccc(O)c(O)c2Cl)C(=O)O)C(=O)N[C@H]2Cc3cccc(C(=O)O)c3OB2O)cs1 | > 64 µg/mL

###

measurement-target: A. baumannii PBP1a (Acinetobacter baumannii)
Sequence (A0ABX6CK30 entry or part of it): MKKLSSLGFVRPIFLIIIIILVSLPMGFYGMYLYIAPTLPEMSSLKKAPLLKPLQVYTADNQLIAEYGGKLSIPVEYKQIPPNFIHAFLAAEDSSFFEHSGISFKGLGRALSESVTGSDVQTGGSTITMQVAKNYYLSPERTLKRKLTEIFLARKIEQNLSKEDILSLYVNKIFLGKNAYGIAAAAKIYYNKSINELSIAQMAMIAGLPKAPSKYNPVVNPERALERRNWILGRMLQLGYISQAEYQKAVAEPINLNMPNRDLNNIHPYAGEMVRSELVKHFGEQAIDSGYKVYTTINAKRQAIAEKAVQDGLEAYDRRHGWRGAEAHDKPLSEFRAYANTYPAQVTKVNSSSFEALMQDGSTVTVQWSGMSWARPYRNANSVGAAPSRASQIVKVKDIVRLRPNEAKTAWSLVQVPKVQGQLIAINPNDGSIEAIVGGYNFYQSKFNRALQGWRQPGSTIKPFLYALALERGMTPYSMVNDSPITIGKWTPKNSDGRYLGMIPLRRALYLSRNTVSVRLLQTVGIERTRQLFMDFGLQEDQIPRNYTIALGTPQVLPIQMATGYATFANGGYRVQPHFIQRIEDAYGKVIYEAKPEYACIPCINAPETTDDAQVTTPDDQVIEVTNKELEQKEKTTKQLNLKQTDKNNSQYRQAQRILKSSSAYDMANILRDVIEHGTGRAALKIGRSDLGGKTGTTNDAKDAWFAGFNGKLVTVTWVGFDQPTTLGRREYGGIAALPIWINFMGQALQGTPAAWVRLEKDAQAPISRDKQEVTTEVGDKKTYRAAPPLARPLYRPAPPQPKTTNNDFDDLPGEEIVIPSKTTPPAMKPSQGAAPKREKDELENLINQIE
test-protocol: Bocillin-FL fluorescence polarization competition binding assay, A. baumannii PBP1a
assay-context: fluorescence polarization competition binding assay using Bocillin-FL; column 1; read-out: A. baumannii PBP1a Potency
pEC50: −log10 of the molar value.
pEC50 overview
measured-parameter: pEC50

* NCCN1CCN(C(=O)N[C@@H](C(=O)N[C@H]2Cc3ccc(F)c(C(=O)O)c3OB2O)c2cc(F)c(O)c(O)c2Cl)C(=O)C1=O (single isomer, unassigned) | < 4.00
* CCN1CCN(C(=O)N[C@@H](C(=O)N[C@H]2Cc3cccc(C(=O)O)c3OB2O)c2c(O)cc(O)cc2F)C(=O)C1=O (single isomer, unassigned) | < 4.00
* NCCN1CCN(C(=O)N[C@@H](C(=O)N[C@H]2Cc3ccc(F)c(C(=O)O)c3OB2O)c2c(F)cc(O)c(O)c2F)C(=O)C1=O (single isomer, unassigned) | < 4.00
* C[C@@H](O)[C@@H](NC(=O)N1CCN(CCNC(=O)c2c(F)cc(O)c(O)c2Cl)C(=O)C1=O)C(=O)N[C@H]1Cc2ccc(F)c(C(=O)O)c2OB1O | < 4.00
* C[C@H]1CN(CCNC(=O)c2ccc(O)c(O)c2Cl)C(=O)C(=O)N1C(=O)NC(C(=O)N[C@H]1Cc2cccc(C(=O)O)c2OB1O)c1ncc(O)cc1F (stereo partly drawn) | 4.52 to 5.00
* NCCCN1CCN(C(=O)N[C@@H](C(=O)N[C@H]2Cc3cc(Cl)c(F)c(C(=O)O)c3OB2O)c2c(F)cc(O)c(O)c2Cl)C(=O)C1=O | < 4.00
* NCCCN1CCN(C(=O)N[C@@H](C(=O)N[C@H]2Cc3ccc(F)c(C(=O)O)c3OB2O)c2cc(F)c(O)c(O)c2Cl)C(=O)C1=O (single isomer, unassigned) | < 4.00
* NC1(CN2CCN(C(=O)N[C@@H](C(=O)N[C@H]3Cc4ccc(F)c(C(=O)O)c4OB3O)c3c(F)cc(O)c(O)c3Cl)C(=O)C2=O)CC1 (single isomer, unassigned) | < 4.00
* CS(=O)(=O)N1CCN(C(=O)N[C@@H](C(=O)N[C@H]2Cc3ccc(F)c(C(=O)O)c3OB2O)c2cc(F)c(O)c(O)c2Cl)C1=O (single isomer, unassigned) | < 4.00
* CS(=O)(=O)N1CCN(C(=O)NC(C(=O)N[C@H]2Cc3ccc(F)c(C(=O)O)c3OB2O)c2ccc(O)c(O)c2Cl)C1=O (stereo partly drawn) | < 4.00
* CCN1CCN(C(=O)N[C@@H](C(=O)N[C@H]2Cc3cc(Cl)c(F)c(C(=O)O)c3OB2O)c2c(F)cc(O)c(O)c2Cl)C(=O)C1=O | < 4.00
* CCN1CCN(C(=O)NC(C(=O)N[C@H]2Cc3cccc(C(=O)O)c3OB2O)c2ccc(O)c(NC(=O)c3ccc(O)c(O)c3Cl)c2)C(=O)C1=O (stereo partly drawn) | 4.00 to 4.52
* O=C(O)c1c(F)ccc2c1OB(O)[C@@H](NC(=O)[C@H](NC(=O)N1CCNC1=O)c1c(F)cc(O)c(O)c1Cl)C2 (single isomer, unassigned) | < 4.00
* O=C(NCCCN1CCN(C(=O)NC(C(=O)N[C@H]2Cc3ccc(F)c(C(=O)O)c3OB2O)c2ncc(O)cc2F)C(=O)C1=O)c1ccc(O)c(O)c1Cl (stereo partly drawn) | 4.00 to 4.52
* NCCCN1CCN(C(=O)N[C@@H](C(=O)N[C@H]2Cc3ccc(F)c(C(=O)O)c3OB2O)c2c(F)cc(O)c(O)c2Cl)C(=O)C1=O (single isomer, unassigned) | < 4.00
* NCCN1CCN(C(=O)N[C@@H](C(=O)N[C@H]2Cc3ccc(F)c(C(=O)O)c3OB2O)c2c(F)cc(O)c(O)c2Cl)C(=O)C1=O (single isomer, unassigned) | < 4.00
* O=C(NCCCN1CCN(C(=O)NC(C(=O)N[C@H]2Cc3cccc(C(=O)O)c3OB2O)c2ncc(O)cc2F)C(=O)C1=O)c1ccc(O)c(O)c1Cl (stereo partly drawn) | 4.52 to 5.00
* NS(=O)(=O)Nc1cccc(C(NC(=O)N2CCN(Cc3c(F)cc(O)c(O)c3Cl)C(=O)C2=O)C(=O)N[C@H]2Cc3cccc(C(=O)O)c3OB2O)c1 (stereo partly drawn) | 4.00 to 4.52

This collection of values is drawn from patent US20230114728A1.
